- experimentalDetails: Tissue distribution after i.g. or i.v. linezolid in control, CCl4-induced and 5/6 Nx rats
- Format: in vivo, rat
- conditionDetails: rat, brain, oral, 63 mg/kg, i.g. 63 mg/kg linezolid; 1 h; CCl4-induced rats; read-out: Tissue/plasma concentration ratio, Brain
- Method: These two groups were further divided into the following three subgroups (n = 4): control rats, CCl4-induced rats, and 5/6 Nx rats. […] The rats were euthanized immediately after blood sampling. The brain, heart, lungs, liver, kidneys, and small intestine were collected. […] Then, 5 µL of the supernatant was analyzed.

structure	Kp at 1 h
CC(=O)NC[C@H]1CN(c2ccc(N3CCOCC3)c(F)c2)C(=O)O1	0.09
